pIC50 values, listed per item
- SYSTEM: Human IL-17AF (Homo sapiens, UniProt Q16552+Q96PD4)
- EXPERIMENTAL_DETAILS: IL-17AF ELISA (competitive ELISA, IL-17AF/IL-17Ra receptor-ligand binding)
- CONDITION_CONTEXT: human IL-17AF coated plate, human IL-17Ra, read-out: IC50, inhibitory activity of compounds on human IL-17AF
pIC50: −log10 of the molar value.

Use these answered entries as a reference point.
[[record]]
molecule = "Cc1[nH]nc2c1-c1cc(F)c(NC(=O)[C@@H](NC(=O)c3ccnn3C(C)C)C(C3CC3)C3CC3)cc1CN(Cc1ccccc1)CC2 [compound 185]"
system = "Human IL-17AF (Homo sapiens, UniProt Q16552+Q96PD4)"
quantity_name = "pIC50"
test_value = "6.30 to 7.00"

[[record]]
molecule = "Cc1[nH]nc2c1-c1cc(F)c(NC(=O)[C@@H](NC(=O)c3cnnn3CCOC(F)F)C(C3CC3)C3CC3)cc1COCC2 [compound 108]"
system = "Human IL-17AF (Homo sapiens, UniProt Q16552+Q96PD4)"
quantity_name = "pIC50"
test_value = "6.30 to 7.00"

[[record]]
molecule = "Cc1[nH]nc2c1-c1cc(F)c(NC(=O)[C@@H](NC(=O)/C(F)=C\\C3CC3)C(C3CC3)C3CC3)cc1COCC2 [compound 230]"
system = "Human IL-17AF (Homo sapiens, UniProt Q16552+Q96PD4)"
quantity_name = "pIC50"
test_value = "6.30 to 7.00"

[[record]]
molecule = "CCn1nccc1C(=O)N[C@H](C(=O)Nc1ccc2c(c1)COCCc1n[nH]c(C)c1-2)C(C1CC1)C1CC1 [compound 3]"
system = "Human IL-17AF (Homo sapiens, UniProt Q16552+Q96PD4)"
quantity_name = "pIC50"
test_value = "≥ 7.00"

[[record]]
molecule = "Cc1[nH]nc2c1-c1cc(F)c(NC(=O)[C@@H](NC(=O)c3ccnn3C(C)C)C(C3CC3)C3CC3)cc1CN(C)C(=O)C2 [compound 132]"
system = "Human IL-17AF (Homo sapiens, UniProt Q16552+Q96PD4)"
quantity_name = "pIC50"
test_value = "6.30 to 7.00"


Query :: Respond only with pIC50 recorded for Cc1[nH]nc2c1-c1cc(F)c(NC(=O)[C@@H](NC(=O)c3ccnn3C(C)C)C(C3CC3)C3CC3)cc1CN(C1CCOCC1)C(=O)C2 [compound 167]
Result :: 6.30 to 7.00

Query :: Return the recorded pIC50 value; entry: CCn1nccc1C(=O)N[C@H](C(=O)Nc1cc2c(cc1F)-c1c(n[nH]c1C)CCN(CC(C)(F)F)C2)C(C1CC1)C1CC1 [compound 161]
Result :: ≥ 7.00

Query :: Please give measured pIC50 of the following entry: Cc1[nH]nc2c1-c1cnc(NC(=O)[C@@H](NC(=O)c3ccnn3C(C)C)C(C3CC3)C3CC3)cc1CN(CC(C)(F)F)C(=O)C2 [compound 193]
Result :: ≥ 7.00

Query :: Name the recorded pIC50 of the molecule listed here: Cc1[nH]nc2c1-c1cnc(NC(=O)[C@@H](NC(=O)c3ccnn3C(C)C)C(C3CC3)C3CC3)cc1CN(Cc1ccccc1)C(=O)C2 [compound 182]
Result :: 6.30 to 7.00

Query :: State its pIC50 for this molecule: Cc1[nH]nc2c1-c1cnc(NC(=O)[C@@H](NC(=O)c3conc3C(C)C)C(C3CC3)C3CC3)cc1COCC2 [compound 234]
Result :: 6.30 to 7.00

Query :: Quote pIC50 reported for Cc1[nH]nc2c1-c1cc(F)c(NC(=O)[C@@H](NC(=O)c3ccnn3C[C@@H]3C[C@H]3F)C(C3CC3)C3CC3)cc1COCC2 [compound 101] please.
Result :: ≥ 7.00

* * *

- SYSTEM: Human IL-17A (Homo sapiens)
- Sequence (Q16552 20-155 limits assumed): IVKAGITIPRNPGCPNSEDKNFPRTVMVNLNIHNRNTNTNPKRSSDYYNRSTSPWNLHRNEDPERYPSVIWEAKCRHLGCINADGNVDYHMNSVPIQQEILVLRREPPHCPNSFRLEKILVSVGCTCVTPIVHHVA
- EXPERIMENTAL_DETAILS: IL-17A enzyme-linked immunosorbent assay (competitive ELISA, IL-17A/IL-17Ra receptor-ligand binding)
- Set-up: purchased Sino Biological Inc. 12047-H07B
- CONDITION_CONTEXT: human IL-17A coated plate, human IL-17Ra, read-out: IC50, inhibitory activity of compounds on human IL-17A
- Experimental: Experimental Example 1 IL-17A Enzyme-Linked Immunosorbent Assay (ELISA) The inhibitory effects of human IL-17A inhibitors on receptor-ligand binding were quantitatively determined by a competitive enzyme-linked immunosorbent assay (ELISA). […] The color reaction was terminated by addition of 2.5 M hydrochloric acid (HCl). Absorbance was measured at 450 nm using a BMG PHERStar microplate reader. […] The relative percent residual activity at each compound concentration was calculated according to Equation 1. […]
pIC50: −log10 of the molar value.
QUANTITY_NAME: pIC50

Examples with their reported pIC50 follow.
[[record]]
structure_smiles_string = "CCn1nccc1C(=O)N[C@H](C(=O)Nc1cc2c(cc1F)-c1c(n[nH]c1C)CCOC2)C(C1CC1)C1CC1"
quantity_name = "pIC50"
test_value = "≥ 7.30"

[[record]]
structure_smiles_string = "Cc1[nH]nc2c1-c1cc(F)c(NC(=O)[C@@H](NC(=O)c3ccnn3CC3(F)CC3)C(C3CC3)C3CC3)cc1COCC2"
quantity_name = "pIC50"
test_value = "6.82 to 7.30"

[[record]]
structure_smiles_string = "Cc1[nH]nc2c1-c1cc(F)c(NC(=O)[C@@H](NC(=O)c3conc3C(C)C)C(C3CC3)C3CC3)cc1COCC2"
quantity_name = "pIC50"
test_value = "≥ 7.30"


Query :: Provide one value: measured pIC50 of `COCCN1Cc2cc(NC(=O)[C@@H](NC(=O)c3ccnn3[C@@H](C)CO)C(C3CC3)C3CC3)c(F)cc2-c2c(n[nH]c2C)CC1=O`
Result :: ≥ 7.30

Query :: Give reported pIC50 value for `CCn1nccc1C(=O)N[C@H](C(=O)Nc1cc2c(cc1F)-c1c(n[nH]c1C)CCOC2)C1CCCCC1`
Result :: ≥ 7.30

Query :: # return recorded pIC50 for input `Cc1[nH]nc2c1-c1cc(F)c(NC(=O)[C@@H](NC(=O)c3ccnn3CCS(C)(=O)=O)C(C3CC3)C3CC3)cc1COCC2`
Result :: ≥ 7.30

* * *

Recorded IC50 values for a group of molecules are listed next.
- SYSTEM: Human IL-17A (Homo sapiens, UniProt Q16552)
- EXPERIMENTAL_DETAILS: IL-17A enzyme-linked immunosorbent assay (competitive ELISA, IL-17A/IL-17Ra receptor-ligand binding)
- Parameters: purchased Sino Biological Inc. 12047-H07B
- CONDITION_CONTEXT: human IL-17A coated plate, human IL-17Ra, read-out: IC50, inhibitory activity of compounds on human IL-17A

Query :: Name the value of IC50 reported for `Cc1[nH]nc2c1-c1cc(F)c(NC(=O)[C@@H](NC(=O)c3ccnn3CCCO)C(C3CC3)C3CC3)cc1COCC2` when tested on Human IL-17A (Homo sapiens, UniProt Q16552).
Result :: ≤ 50 nM

Query :: GET IC50 | system: Human IL-17A (Homo sapiens, UniProt Q16552) | item: `Cc1[nH]nc2c1-c1cc(F)c(NC(=O)[C@@H](NC(=O)c3ccnn3C(C)C)C(C3CC3)C3CC3)cc1CN(C(C)C)CC2`
Result :: 50 to 150 nM

Query :: Report value: IC50, system: Human IL-17A (Homo sapiens, UniProt Q16552), molecule: Cc1[nH]nc2c1-c1cnc(NC(=O)[C@@H](NC(=O)/C(F)=C\C(C)C)C(C3CC3)C3CC3)cc1CN(C(C)C(F)(F)F)C(=O)C2 (mixture of isomers)
Result :: ≤ 50 nM

Query :: Please respond with reported IC50 (system Human IL-17A (Homo sapiens, UniProt Q16552)) for `CCc1nonc1C(=O)N[C@H](C(=O)Nc1ccc2c(c1)COCCc1n[nH]c(C)c1-2)C(C1CC1)C1CC1` .
Result :: ≤ 50 nM

Query :: For Human IL-17A (Homo sapiens, UniProt Q16552), give IC50 of the listed molecule: `CCc1nocc1C(=O)N[C@H](C(=O)Nc1cc2c(cn1)-c1c(n[nH]c1C)CCOC2)C(C1CC1)C1CC1`
Result :: ≤ 50 nM

Query :: # lookup: Human IL-17A (Homo sapiens, UniProt Q16552) IC50, key = `Cc1[nH]nc2c1-c1cnc(NC(=O)[C@@H](NC(=O)c3ccnn3C(C)C)C(C3CC3)C3CC3)cc1CN(C1CC(F)(F)C1)CC2`
Result :: ≤ 50 nM

Query :: Identify measured IC50 obtained with Human IL-17A (Homo sapiens, UniProt Q16552) for `CCn1nccc1C(=O)N[C@H](C(=O)Nc1cc2c(cn1)-c1c(n[nH]c1C)CCN(C1CC1)C2)C(C1CC1)C1CC1` .
Result :: ≤ 50 nM

Query :: Identify measured IC50 obtained with Human IL-17A (Homo sapiens, UniProt Q16552) for `Cc1[nH]nc2c1-c1cc(F)c(NC(=O)[C@@H](NC(=O)c3ccnn3C(C)C)C(C3CC3)C3CC3)cc1CN(C1CCOCC1)C(=O)C2` .
Result :: ≤ 50 nM

Query :: Check Human IL-17A (Homo sapiens, UniProt Q16552) data and give IC50 for CCC1Cc2n[nH]c(C)c2-c2cc(F)c(NC(=O)[C@@H](NC(=O)c3ccnn3C(C)C)C(C3CC3)C3CC3)cc2CO1 (single isomer, unassigned) [compound 120a] .
Result :: 50 to 150 nM

Data origin: patent US20260258050A1
